- System: estrogen responsive element/promoter/luciferase reporter gene
- test_description: ERE Luciferase Assay in T47D-KBluc cells
- Format: cell-based, human
- condition_description: Homo sapiens, 24 hours, luciferase activity, read-out: Target Engagement IC50
value_kind: IC50 (nM)

# count of solved cases: 5
# compound, IC50 [nM]
rows = [
    ("COCCOCCOc1c(CCN2CCCN(CCCCOc3ccc([C@H]4c5ccc(O)cc5CC[C@H]4c4ccccc4)cc3)CC2)ccc2c1CN([C@H]1CCC(=O)NC1=O)C2=O", 102),
    ("O=C1CCC(N2Cc3cc(N4CCN(CCCCCOc5ccc([C@@H]6c7ccc(O)cc7CC[C@@H]6c6ccccc6)cc5)CC4)cc(OC(F)F)c3C2=O)C(=O)N1 (some centres unmarked)", 1.2),
    ("COc1cc(N2CCN(CCCCCOc3ccc([C@@H]4c5ccc(O)cc5CC[C@@H]4c4ccccc4)cc3)CC2)cc2c1C(=O)N(C1CCC(=O)NC1=O)C2 (some centres unmarked)", 0.79),
    ("COc1cc(N2CCN(CCC3CCN(c4ccc([C@@H]5c6ccc(O)cc6CC[C@@H]5c5ccccc5)cc4F)CC3)CC2)cc2c1C(=O)N(C1CCC(=O)NC1=O)C2 (some centres unmarked)", 0.7),
    ("O=C1CCC(n2nc3cc(N4CCN(CCCCCOc5ccc([C@@H]6c7ccc(O)cc7CC[C@@H]6c6ccccc6)cc5)CC4)ccn3c2=O)C(=O)N1 (some centres unmarked)", 0.5),
]

[I] COc1cc(N2CCN(CCCCCOc3ccc([C@@H]4c5ccc(O)cc5CC[C@@H]4c4ccccc4)cc3)CC2)cc2c1C(=O)N([C@@H]1CCC(=O)NC1=O)C2
[II] O=C1CCC(N2C(=O)c3ccc(N4CCN(CC5CCN(c6ccc([C@@H]7c8ccc(O)cc8CC[C@@H]7c7ccccc7)cc6)CC5)CC4)cc3C23CC3)C(=O)N1 (some centres unmarked)
stdin: Which has the higher IC50, I or II ? Mark your answer with the label of the selected entry.
stdout: II
(II: 2.4 nM, I: 0.37 nM)
